biological target: CYP11A1 (Homo sapiens, UniProt P05108); construct: measuring the cellular production of pregnenolone (P) catalyzed by CYP11A1; host or cells: NCI-H295R; assay: H295R Steroid Biosynthesis Inhibition Assay - inhibition of pregnenolone (P) production catalyzed by CYP11A1 in NCI-H295R cells; format: cell-based; conditions: 48 h, LC-MS/MS, read-out: Inh. of P IC50
Sequence (P05108 40-521): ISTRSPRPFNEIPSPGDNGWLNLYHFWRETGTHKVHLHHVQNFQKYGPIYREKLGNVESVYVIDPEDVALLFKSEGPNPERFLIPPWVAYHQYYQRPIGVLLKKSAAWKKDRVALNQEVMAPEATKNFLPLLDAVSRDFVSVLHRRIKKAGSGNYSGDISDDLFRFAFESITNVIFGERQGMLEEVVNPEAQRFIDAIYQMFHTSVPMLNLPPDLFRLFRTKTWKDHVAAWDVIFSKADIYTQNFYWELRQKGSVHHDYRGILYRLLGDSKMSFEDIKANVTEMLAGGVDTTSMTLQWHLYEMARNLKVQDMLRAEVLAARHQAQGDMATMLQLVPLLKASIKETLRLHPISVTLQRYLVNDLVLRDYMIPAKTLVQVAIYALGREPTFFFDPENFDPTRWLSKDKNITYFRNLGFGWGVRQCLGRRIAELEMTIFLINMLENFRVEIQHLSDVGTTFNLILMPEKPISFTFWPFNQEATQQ
Parameter measured: IC50

Solved cases (5 shown):
compound="O=S(=O)(N1CCC(c2cnc3cc(CN4Cc5ccccc5C4)ccc3n2)CC1)C(F)(F)F [Compound 97]" parameter_measured=IC50 value_reported="40 to 100 nM"
compound="CS(=O)(=O)N1CCC(c2cc(=O)c3cc(CN4Cc5ccccc5C4)ccc3o2)CC1 [Compound 60]" parameter_measured=IC50 value_reported="≤ 40 nM"
compound="C[C@]1(O)CC[C@@H](c2cc3oc(CN4Cc5ccccc5C4)cc(=O)c3o2)CC1 [Compound 28]" parameter_measured=IC50 value_reported="≤ 40 nM"
compound="O=C(OC1CCCC1)N1CCC(c2cnc3cc(CN4Cc5ccccc5C4)ccc3n2)CC1 [Compound 114]" parameter_measured=IC50 value_reported="≤ 40 nM"
compound="CS(=O)(=O)N1CCCC(c2cc3oc(CN4Cc5ccccc5C4)cc(=O)c3o2)C1 (centres unmarked) [Compound 16]" parameter_measured=IC50 value_reported="40 to 100 nM"

Please list IC50 recorded for the compound CS(=O)(=O)N1CCC(c2cc(=O)n3cc(CN4Cc5ccccc5C4)ccc3n2)CC1 [Compound 62]
40 to 100 nM

Please list IC50 recorded for the compound CS(=O)(=O)N1CCC(c2cnc3cc(CN4Cc5ccc(F)cc5C4)ccc3n2)CC1 [Compound 87]
≤ 40 nM

Please list IC50 recorded for the compound O[C@H]1CC[C@H](c2nc3cc(CN4Cc5ccccc5C4)ccc3o2)CC1 [Compound 127]
≤ 40 nM
